biological target: E. coli RNA polymerase σ^70 holoenzyme (Escherichia coli, UniProt P0A8T7+P0A8V2); experiment: Fluorescence-detected inhibition of Escherichia coli RNA polymerase; conditions: read-out: IC50 E. coli RNAP
Sequence (P0A8V2 whole entry): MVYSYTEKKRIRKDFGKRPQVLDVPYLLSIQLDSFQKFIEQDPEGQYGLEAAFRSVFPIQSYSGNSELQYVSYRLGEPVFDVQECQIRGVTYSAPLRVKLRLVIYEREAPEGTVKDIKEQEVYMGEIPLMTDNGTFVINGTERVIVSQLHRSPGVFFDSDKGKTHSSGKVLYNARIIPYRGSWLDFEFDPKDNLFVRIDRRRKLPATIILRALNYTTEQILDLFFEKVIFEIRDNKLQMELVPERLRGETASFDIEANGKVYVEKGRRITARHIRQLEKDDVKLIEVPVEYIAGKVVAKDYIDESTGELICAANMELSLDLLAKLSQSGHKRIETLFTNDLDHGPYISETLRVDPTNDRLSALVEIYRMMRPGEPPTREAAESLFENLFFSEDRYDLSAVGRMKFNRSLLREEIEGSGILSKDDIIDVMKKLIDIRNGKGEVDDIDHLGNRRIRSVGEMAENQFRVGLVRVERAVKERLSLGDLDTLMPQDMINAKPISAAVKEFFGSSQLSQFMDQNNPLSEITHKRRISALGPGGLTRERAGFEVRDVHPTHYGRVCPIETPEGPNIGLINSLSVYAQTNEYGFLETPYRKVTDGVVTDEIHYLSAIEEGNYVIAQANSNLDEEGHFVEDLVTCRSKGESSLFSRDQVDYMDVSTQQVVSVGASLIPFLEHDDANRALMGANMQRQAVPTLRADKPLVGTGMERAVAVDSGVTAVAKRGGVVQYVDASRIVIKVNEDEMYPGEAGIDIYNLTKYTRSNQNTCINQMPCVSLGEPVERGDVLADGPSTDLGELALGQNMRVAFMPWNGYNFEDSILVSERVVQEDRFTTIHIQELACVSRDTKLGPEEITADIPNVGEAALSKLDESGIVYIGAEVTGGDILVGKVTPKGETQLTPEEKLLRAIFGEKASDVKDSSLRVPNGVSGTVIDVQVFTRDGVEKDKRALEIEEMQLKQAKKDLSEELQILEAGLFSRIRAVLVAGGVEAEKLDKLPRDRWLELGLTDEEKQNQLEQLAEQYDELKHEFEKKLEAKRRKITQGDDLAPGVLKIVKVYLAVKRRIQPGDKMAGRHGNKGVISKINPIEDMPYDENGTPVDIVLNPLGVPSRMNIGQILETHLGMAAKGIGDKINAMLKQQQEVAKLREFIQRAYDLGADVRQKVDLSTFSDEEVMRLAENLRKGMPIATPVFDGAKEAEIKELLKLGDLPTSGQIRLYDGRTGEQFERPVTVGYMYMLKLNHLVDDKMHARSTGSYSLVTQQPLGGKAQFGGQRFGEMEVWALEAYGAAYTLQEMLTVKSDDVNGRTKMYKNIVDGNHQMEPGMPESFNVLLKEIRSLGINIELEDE
Sequence (P0A8T7 whole entry): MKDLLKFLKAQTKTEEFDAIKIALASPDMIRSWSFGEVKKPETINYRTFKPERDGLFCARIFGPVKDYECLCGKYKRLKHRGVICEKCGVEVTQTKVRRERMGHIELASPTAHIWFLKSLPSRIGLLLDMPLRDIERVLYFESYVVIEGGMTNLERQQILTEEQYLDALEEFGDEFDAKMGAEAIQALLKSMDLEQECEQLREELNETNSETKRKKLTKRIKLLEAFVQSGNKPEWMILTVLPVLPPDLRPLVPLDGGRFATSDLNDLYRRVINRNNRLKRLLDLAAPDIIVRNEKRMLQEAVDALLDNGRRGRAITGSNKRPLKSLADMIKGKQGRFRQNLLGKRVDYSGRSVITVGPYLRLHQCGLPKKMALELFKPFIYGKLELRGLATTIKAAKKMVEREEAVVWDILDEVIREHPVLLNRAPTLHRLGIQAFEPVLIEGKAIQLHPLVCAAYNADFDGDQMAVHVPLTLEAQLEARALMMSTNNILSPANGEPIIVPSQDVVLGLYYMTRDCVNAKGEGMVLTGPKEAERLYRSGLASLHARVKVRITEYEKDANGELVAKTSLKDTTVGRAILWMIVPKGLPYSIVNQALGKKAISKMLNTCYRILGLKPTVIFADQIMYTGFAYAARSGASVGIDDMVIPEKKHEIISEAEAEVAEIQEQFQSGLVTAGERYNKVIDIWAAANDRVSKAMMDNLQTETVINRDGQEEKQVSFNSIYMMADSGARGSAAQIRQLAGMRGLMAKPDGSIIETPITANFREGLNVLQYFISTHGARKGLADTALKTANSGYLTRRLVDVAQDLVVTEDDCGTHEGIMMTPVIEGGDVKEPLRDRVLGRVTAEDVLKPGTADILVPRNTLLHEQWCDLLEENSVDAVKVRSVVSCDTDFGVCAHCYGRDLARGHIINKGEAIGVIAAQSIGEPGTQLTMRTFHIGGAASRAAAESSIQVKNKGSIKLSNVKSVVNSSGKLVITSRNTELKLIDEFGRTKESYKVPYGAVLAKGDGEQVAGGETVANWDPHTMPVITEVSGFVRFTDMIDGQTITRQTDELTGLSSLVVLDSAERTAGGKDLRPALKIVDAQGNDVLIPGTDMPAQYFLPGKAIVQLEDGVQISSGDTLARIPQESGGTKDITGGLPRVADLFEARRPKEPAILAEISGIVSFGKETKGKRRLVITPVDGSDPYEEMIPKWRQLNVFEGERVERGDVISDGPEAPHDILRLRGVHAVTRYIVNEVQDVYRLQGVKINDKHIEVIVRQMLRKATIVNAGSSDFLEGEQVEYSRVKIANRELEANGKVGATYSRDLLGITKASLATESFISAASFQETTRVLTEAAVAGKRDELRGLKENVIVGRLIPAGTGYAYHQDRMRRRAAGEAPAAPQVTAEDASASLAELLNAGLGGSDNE
Sequence (P0A7Z4 whole entry partner): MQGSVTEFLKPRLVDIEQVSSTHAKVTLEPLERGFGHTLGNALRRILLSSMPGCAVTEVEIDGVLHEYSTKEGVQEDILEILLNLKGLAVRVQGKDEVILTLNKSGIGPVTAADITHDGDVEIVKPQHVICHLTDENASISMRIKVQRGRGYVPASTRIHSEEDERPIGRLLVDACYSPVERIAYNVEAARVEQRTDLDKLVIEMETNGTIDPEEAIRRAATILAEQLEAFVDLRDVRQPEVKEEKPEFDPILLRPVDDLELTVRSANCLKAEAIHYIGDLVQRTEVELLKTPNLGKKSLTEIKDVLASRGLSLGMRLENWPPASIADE
Sequence (P0A800 whole entry partner): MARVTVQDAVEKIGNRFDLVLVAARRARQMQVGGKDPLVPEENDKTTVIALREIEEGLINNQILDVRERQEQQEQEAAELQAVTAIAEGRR
Sequence (P00579 whole entry partner): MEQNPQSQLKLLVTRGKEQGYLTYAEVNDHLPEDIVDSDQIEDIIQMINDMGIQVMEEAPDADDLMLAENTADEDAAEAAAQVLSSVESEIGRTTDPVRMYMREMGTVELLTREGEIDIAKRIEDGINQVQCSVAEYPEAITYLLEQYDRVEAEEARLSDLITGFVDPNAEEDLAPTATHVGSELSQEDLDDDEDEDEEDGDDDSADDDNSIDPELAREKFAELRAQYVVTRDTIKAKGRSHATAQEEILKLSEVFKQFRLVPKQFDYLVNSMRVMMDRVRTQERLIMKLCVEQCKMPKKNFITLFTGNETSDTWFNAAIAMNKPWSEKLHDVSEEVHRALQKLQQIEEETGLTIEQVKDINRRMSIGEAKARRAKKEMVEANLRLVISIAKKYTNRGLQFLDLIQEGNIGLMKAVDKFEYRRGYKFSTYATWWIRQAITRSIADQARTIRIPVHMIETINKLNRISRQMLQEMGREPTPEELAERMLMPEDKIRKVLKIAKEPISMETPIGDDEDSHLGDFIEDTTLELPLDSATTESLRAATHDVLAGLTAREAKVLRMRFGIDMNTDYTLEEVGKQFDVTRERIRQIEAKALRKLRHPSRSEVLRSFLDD
Outcome measure: pIC50
// pIC50: -log10(molar conc.)

Prompt: Could you share which pIC50 value was measured for COC(=O)N/C=C/CCC(C)c1cc(O)c(C(=O)/C(C)=C/C=C(\C)CCCCC(F)(F)F)c(=O)o1 (stereo not drawn) ?
Response: 8.00

Prompt: Could you share which pIC50 value was measured for COC(=O)N/C=C/CCC(C)c1cc(O)c(C(=O)/C(C)=C/C=C(\C)CCCC(F)(F)F)c(=O)o1 (stereo not drawn) ?
Response: 8.40

Prompt: Could you share which pIC50 value was measured for "COC(=O)N/C=C/CCCc1cc(O)c(C(=O)/C(C)=C/C=C(\C)CCC(F)(F)F)c(=O)o1" ?
Response: 7.70

Prompt: Could you share which pIC50 value was measured for "COC(=O)N/C=C/CCCc1cc(O)c(C(=O)/C(C)=C/C=C(\C)CCCC(F)(F)F)c(=O)o1" ?
Response: 8.30

Prompt: Could you share which pIC50 value was measured for CCCC/C(C)=C/C=C(\C)C(=O)c1c(O)cc([C@H](C)CC/C=C/NC(=O)OC)oc1=O (racemic) [Myx B, (±)myxopyronin B, reference compound] ?
Response: 8.00

Prompt: Could you share which pIC50 value was measured for COC(=O)N/C=C/CCC(C)c1cc(O)c(C(=O)/C(C)=C/C=C(\C)CCC(F)(F)F)c(=O)o1 (stereo not drawn) ?
Response: 8.40

* * *

system: Escherichia coli D212f2tolC; details: MIC in presence of 10% mouse serum divided by MIC in absence of 10% mouse serum
Assignment: determine reported serum shift for the given compounds.
Answer field: number only, no words.

Prompt: Could you share which serum shift value was measured for COC(=O)N/C=C/CCC(C)c1cc(O)c(C(=O)/C(C)=C/C=C(\C)CCCC(F)(F)F)c(=O)o1 (stereo not drawn) [compound 1] ?
Response: 8

Prompt: Could you share which serum shift value was measured for CCCC/C(C)=C/C=C(\C)C(=O)c1c(O)cc([C@H](C)CC/C=C/NC(=O)OC)oc1=O (racemic) [Myx B, (±)myxopyronin B, reference compound] ?
Response: 16

Prompt: Could you share which serum shift value was measured for COC(=O)N/C=C/CCC(C)c1cc(O)c(C(=O)/C(C)=C/C=C(\C)CCC(F)(F)F)c(=O)o1 (stereo not drawn) [compound 5] ?
Response: 8

Prompt: Could you share which serum shift value was measured for COC(=O)N/C=C/CCCc1cc(O)c(C(=O)/C(C)=C/C=C(\C)CCC(F)(F)F)c(=O)o1 [compound 11] ?
Response: 4

Prompt: Could you share which serum shift value was measured for COC(=O)N/C=C/CCC(C)c1cc(O)c(C(=O)/C(C)=C/C=C(\C)CCCCC(F)(F)F)c(=O)o1 (stereo not drawn) [compound 3] ?
Response: 16

Prompt: Could you share which serum shift value was measured for COC(=O)N/C=C/CCCc1cc(O)c(C(=O)/C(C)=C/C=C(\C)CCCC(F)(F)F)c(=O)o1 [compound 9] ?
Response: 8

* * *

target: M. tuberculosis RNA polymerase core enzyme, M. tuberculosis σ^A (Mycobacterium tuberculosis, UniProt P9WGY7+P9WGY9); test: Fluorescence-detected inhibition of Mycobacterium tuberculosis RNA polymerase; type: biochemical; settings: read-out: IC50 M. tuberculosis RNAP
Assignment: determine reported IC50 for the given compounds.
The reply should contain only the number, in nM.

Prompt: Could you share which IC50 value was measured for COC(=O)N/C=C/CCC(C)c1cc(O)c(C(=O)/C(C)=C/C=C(\C)CCC(F)(F)F)c(=O)o1 (stereo not shown) [compound 5] ?
Response: 100

Prompt: Could you share which IC50 value was measured for COC(=O)N/C=C/CCCc1cc(O)c(C(=O)/C(C)=C/C=C(\C)CCCC(F)(F)F)c(=O)o1 [compound 9] ?
Response: 60

Prompt: Could you share which IC50 value was measured for CCCC/C(C)=C/C=C(\C)C(=O)c1c(O)cc([C@H](C)CC/C=C/NC(=O)OC)oc1=O (racemic) [Myx B, (±)myxopyronin B, reference compound] ?
Response: 100

Prompt: Could you share which IC50 value was measured for COC(=O)N/C=C/CCC(C)c1cc(O)c(C(=O)/C(C)=C/C=C(\C)CCCC(F)(F)F)c(=O)o1 (stereo not shown) [compound 1] ?
Response: 30

* * *

target: S. aureus RNA polymerase core enzyme, S. aureus σ^A (Staphylococcus aureus, UniProt P47768+Q2G0N5); experiment: Fluorescence-detected inhibition of Staphylococcus aureus RNA polymerase; assay type: biochemical; conditions: read-out: IC50 S. aureus RNAP
Assignment: determine reported pIC50 for the given molecules.
// pIC50: -log10(molar conc.)

Prompt: Could you share which pIC50 value was measured for CCCC/C(C)=C/C=C(\C)C(=O)c1c(O)cc([C@H](C)CC/C=C/NC(=O)OC)oc1=O (racemic) [Myx B, (±)myxopyronin B, reference compound] ?
Response: 7.15

Prompt: Could you share which pIC50 value was measured for COC(=O)N/C=C/CCC(C)c1cc(O)c(C(=O)/C(C)=C/C=C(\C)CCC(F)(F)F)c(=O)o1 (stereo not drawn) ?
Response: 7.00

Prompt: Could you share which pIC50 value was measured for COC(=O)N/C=C/CCC(C)c1cc(O)c(C(=O)/C(C)=C/C=C(\C)CCCC(F)(F)F)c(=O)o1 (stereo not drawn) ?
Response: 8.00

* * *

assay: Metabolic stability in the presence of human liver microsomes; details: human, liver microsomes
Outcome measure: half-life (min)
The reply should contain only the number, in min.

Prompt: Could you share which half-life value was measured for COC(=O)N/C=C/CCC(C)c1cc(O)c(C(=O)/C(C)=C/C=C(\C)CCCC(F)(F)F)c(=O)o1 (stereo not shown) ?
Response: 14

* * *

target: M. tuberculosis RNA polymerase core enzyme, M. tuberculosis σ^A (Mycobacterium tuberculosis, UniProt P9WGY7+P9WGY9); test: Fluorescence-detected inhibition of Mycobacterium tuberculosis RNA polymerase; format: biochemical
Outcome measure: pIC50
// pIC50: -log10(molar conc.)

Prompt: Could you share which pIC50 value was measured for COC(=O)N/C=C/CCC(C)c1cc(O)c(C(=O)/C(C)=C/C=C(\C)CCCCC(F)(F)F)c(=O)o1 (stereo not shown) [compound 3] ?
Response: 6.70
